Tested on: 926638-142-R-J1-PDC complex spheroid viability
run description: Anticancer human tumor 926638-142-R-J1-PDC patient-derived endometrial carcinoma cell line growth inhibition [POLQ]
experimental setup: second compound 1 µM; first compound 3.16 µM; active compounds read low
value kind: viability, T/C (%)
Numbers only, in %.

# example entries with known answers
molecule | units label | readout value
O=C(Nc1ccc(O)c(NS(=O)(=O)c2ccc(F)cc2)c1)c1ccc(-c2ccccc2)cc1 + Cc1cccc(N(C)C(=O)C2C(O)CCN2c2nc(C)cc(C(F)(F)F)c2C#N)c1 | % | 85.6
CC1COCCN1c1cc(C2(O)CC3CCC(C2)O3)c2cnn(-c3ccn[nH]3)c2n1 (centres undefined) + Nc1ccc(C#CCN(C(=O)Cc2ncc(C(F)(F)F)cc2C(F)(F)F)c2ccc(F)cc2)nn1 | % | 9.22
O=C(Nc1ccc(O)c(NS(=O)(=O)c2ccc(F)cc2)c1)c1ccc(-c2ccccc2)cc1 + Nc1ccc(C#CCN(C(=O)Cc2ncc(C(F)(F)F)cc2C(F)(F)F)c2ccc(F)cc2)nn1 | % | 105

For every record below, what is its viability, T/C?
1. COc1cc2cc(C(=O)CCC(=O)O)sc2cc1OC + Cc1cccc(N(C)C(=O)C2C(O)CCN2c2nc(C)cc(C(F)(F)F)c2C#N)c1
2. CNCc1ccc(-c2[nH]c3cc(F)cc4c3c2CCNC4=O)cc1 + Nc1ccc(C#CCN(C(=O)Cc2ncc(C(F)(F)F)cc2C(F)(F)F)c2ccc(F)cc2)nn1
3. COc1cccc2c1C(=O)c1c(O)c3c(c(O)c1C2=O)CC(O)(C(=O)CO)CC3OC1CC(N)C(O)C(C)O1 (centres undefined) + Nc1ccc(C#CCN(C(=O)Cc2ncc(C(F)(F)F)cc2C(F)(F)F)c2ccc(F)cc2)nn1
4. CCc1cc2c(N3CCc4c(cc(Cn5ccnc5)cc4-c4cn(C)nc4C(F)(F)F)C3=O)ccnc2c(OC)n1 + Nc1ccc(C#CCN(C(=O)Cc2ncc(C(F)(F)F)cc2C(F)(F)F)c2ccc(F)cc2)nn1
5. CC(C)n1c(=O)n(C)c2cnc3cc(F)c(-c4ccc(OCCCN5CCCCC5)nc4)cc3c21 + COC1C(OC(N)=O)C(O)C(Oc2ccc3c(O)c(NC(=O)c4ccc(O)c(CC=C(C)C)c4)c(=O)oc3c2C)OC1(C)C
6. COc1cccc2c1C(=O)c1c(O)c3c(c(O)c1C2=O)CC(O)(C(=O)CO)CC3OC1CC(N)C(O)C(C)O1 (centres undefined) + COC1C(OC(N)=O)C(O)C(Oc2ccc3c(O)c(NC(=O)c4ccc(O)c(CC=C(C)C)c4)c(=O)oc3c2C)OC1(C)C

Solution:
1: 94; 2: 95.3; 3: 0.23; 4: 44.8; 5: 81.9; 6: 0.17

----------
Tested on: 926638-142-R-J1-PDC complex spheroid viability
run description: Anticancer human tumor 926638-142-R-J1-PDC cell line growth inhibition [POLQ];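 also: spheroids exposed to drugs for one week before readout; percent viability relative to DMSO vehicle control wells set as 100%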
experimental setup: second compound 1 µM; first compound 0.1 µM; active compounds read low
// NB: equality with 90% counts as 0; only viability, T/C strictly below is 1

// known answers, use as guide
molecule | assigned class
C=CCn1c(=O)c2cnc(Nc3ccc(N4CCN(C)CC4)cc3)nc2n1-c1cccc(C(C)(C)O)n1 + Nc1ccc(C#CCN(C(=O)Cc2ncc(C(F)(F)F)cc2C(F)(F)F)c2ccc(F)cc2)nn1 | 1
C=CC(=O)N1CCN(c2nc(=O)n(-c3c(C)ccnc3C(C)C)c3nc(-c4c(O)cccc4F)c(F)cc23)C(C)C1 (configuration not stated) + Cc1cccc(N(C)C(=O)C2C(O)CCN2c2nc(C)cc(C(F)(F)F)c2C#N)c1 | 1
COc1cc(C2c3cc4c(cc3C(OC3OC5COC(C)OC5C(O)C3O)C3COC(=O)C23)OCO4)cc(OC)c1O (configuration not stated) + Cc1cccc(N(C)C(=O)C2C(O)CCN2c2nc(C)cc(C(F)(F)F)c2C#N)c1 | 1
COc1cccc(OCCCN)c1-c1cc(Nc2cnc(C#N)cn2)n[nH]1 + COC1C(OC(N)=O)C(O)C(Oc2ccc3c(O)c(NC(=O)c4ccc(O)c(CC=C(C)C)c4)c(=O)oc3c2C)OC1(C)C | 1
C=CC(=O)N1CCN(c2nc(=O)n(-c3c(C)ccnc3C(C)C)c3nc(-c4c(O)cccc4F)c(F)cc23)C(C)C1 (configuration not stated) + Nc1ccc(C#CCN(C(=O)Cc2ncc(C(F)(F)F)cc2C(F)(F)F)c2ccc(F)cc2)nn1 | 1
CC1COCCN1c1cc(C2(O)CC3CCC(C2)O3)c2cnn(-c3ccn[nH]3)c2n1 (configuration not stated) + Cc1cccc(N(C)C(=O)C2C(O)CCN2c2nc(C)cc(C(F)(F)F)c2C#N)c1 | 1
COc1cc2cc(C(=O)CCC(=O)O)sc2cc1OC + Cc1cccc(N(C)C(=O)C2C(O)CCN2c2nc(C)cc(C(F)(F)F)c2C#N)c1 | 0
COc1cc2cc(C(=O)CCC(=O)O)sc2cc1OC + Nc1ccc(C#CCN(C(=O)Cc2ncc(C(F)(F)F)cc2C(F)(F)F)c2ccc(F)cc2)nn1 | 0
CC1COCCN1c1cc(C2(S(C)(=N)=O)CC2)nc(-c2ccnc3[nH]ccc23)n1 (configuration not stated) + Cc1cccc(N(C)C(=O)C2C(O)CCN2c2nc(C)cc(C(F)(F)F)c2C#N)c1 | 0
CNCc1ccc(-c2[nH]c3cc(F)cc4c3c2CCNC4=O)cc1 + COC1C(OC(N)=O)C(O)C(Oc2ccc3c(O)c(NC(=O)c4ccc(O)c(CC=C(C)C)c4)c(=O)oc3c2C)OC1(C)C | 1

Exercise: Regarding O=C(c1cc(Cc2n[nH]c(=O)c3ccccc23)ccc1F)N1CCN(C(=O)C2CC2)CC1 + Cc1cccc(N(C)C(=O)C2C(O)CCN2c2nc(C)cc(C(F)(F)F)c2C#N)c1 , kindly confirm whether its viability, T/C is beneath 90%.
Solution: 1

Exercise: Input COc1cc2cc(C(=O)CCC(=O)O)sc2cc1OC + COC1C(OC(N)=O)C(O)C(Oc2ccc3c(O)c(NC(=O)c4ccc(O)c(CC=C(C)C)c4)c(=O)oc3c2C)OC1(C)C ; condition: viability, T/C strictly below 90%. Does it hold?
Solution: 0

Exercise: Lab note: viability, T/C threshold 90%. Does this molecule come in strictly under it? CC1COCCN1c1cc(C2(S(C)(=N)=O)CC2)nc(-c2ccnc3[nH]ccc23)n1 (configuration not stated) + Nc1ccc(C#CCN(C(=O)Cc2ncc(C(F)(F)F)cc2C(F)(F)F)c2ccc(F)cc2)nn1
Solution: 0

Exercise: Please state whether viability, T/C is below 90% for CCc1c2c(nc3ccc(O)cc13)-c1cc3c(c(=O)n1C2)COC(=O)[C@]3(O)CC + COC1C(OC(N)=O)C(O)C(Oc2ccc3c(O)c(NC(=O)c4ccc(O)c(CC=C(C)C)c4)c(=O)oc3c2C)OC1(C)C
Solution: 1

----------
Test system: 926638-142-R-J1-PDC complex spheroid viability
run description: Anticancer human tumor 926638-142-R-J1-PDC cell line growth inhibition [POLQ];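 also: spheroids exposed to drugs for one week before readout; percent viability relative to DMSO vehicle control wells set as 100%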
experimental setup: second compound 0.1 µM; first compound 3.16 µM; active compounds read low
value kind: viability, T/C

Consider the worked cases shown below.
compound | experimental target | viability, T/C
C=CC(=O)N1CCN(c2nc(=O)n(-c3c(C)ccnc3C(C)C)c3nc(-c4c(O)cccc4F)c(F)cc23)C(C)C1 (stereo unspecified) + Cc1cccc(N(C)C(=O)C2C(O)CCN2c2nc(C)cc(C(F)(F)F)c2C#N)c1 | 926638-142-R-J1-PDC complex spheroid viability | 70.8%
CCc1cc2c(N3CCc4c(cc(Cn5ccnc5)cc4-c4cn(C)nc4C(F)(F)F)C3=O)cc(C)nc2c(OC)n1 + Cc1cccc(N(C)C(=O)C2C(O)CCN2c2nc(C)cc(C(F)(F)F)c2C#N)c1 | 926638-142-R-J1-PDC complex spheroid viability | 38.1%
Nc1ccn(C2OC(CO)C(O)C2(F)F)c(=O)n1 (stereo unspecified) + Cc1cccc(N(C)C(=O)C2C(O)CCN2c2nc(C)cc(C(F)(F)F)c2C#N)c1 | 926638-142-R-J1-PDC complex spheroid viability | 46%
CC1COCCN1c1cc(C2(S(C)(=N)=O)CC2)nc(-c2ccnc3[nH]ccc23)n1 (stereo unspecified) + Cc1cccc(N(C)C(=O)C2C(O)CCN2c2nc(C)cc(C(F)(F)F)c2C#N)c1 | 926638-142-R-J1-PDC complex spheroid viability | 76.2%
CC1COCCN1c1cc(-c2ccnn2C)c2ccnc(-c3ccn[nH]3)c2n1 (stereo unspecified) + COC1C(OC(N)=O)C(O)C(Oc2ccc3c(O)c(NC(=O)c4ccc(O)c(CC=C(C)C)c4)c(=O)oc3c2C)OC1(C)C | 926638-142-R-J1-PDC complex spheroid viability | 11.5%
COc1ccc([C@@H](O)c2cc(-c3ncnc4cc(N5CCOCC5)ccc34)c(F)cc2Cl)nn1 + Nc1ccc(C#CCN(C(=O)Cc2ncc(C(F)(F)F)cc2C(F)(F)F)c2ccc(F)cc2)nn1 | 926638-142-R-J1-PDC complex spheroid viability | 19.4%
O=C(c1cc(Cc2n[nH]c(=O)c3ccccc23)ccc1F)N1CCN(C(=O)C2CC2)CC1 + Nc1ccc(C#CCN(C(=O)Cc2ncc(C(F)(F)F)cc2C(F)(F)F)c2ccc(F)cc2)nn1 | 926638-142-R-J1-PDC complex spheroid viability | 80.7%
O=C(c1cc(Cc2n[nH]c(=O)c3ccccc23)ccc1F)N1CCN(C(=O)C2CC2)CC1 + COC1C(OC(N)=O)C(O)C(Oc2ccc3c(O)c(NC(=O)c4ccc(O)c(CC=C(C)C)c4)c(=O)oc3c2C)OC1(C)C | 926638-142-R-J1-PDC complex spheroid viability | 89.3%

For every item below, please supply its viability, T/C.
1. CC1COCCN1c1cc(C2(O)CC3CCC(C2)O3)c2cnn(-c3ccn[nH]3)c2n1 (stereo unspecified) + Nc1ccc(C#CCN(C(=O)Cc2ncc(C(F)(F)F)cc2C(F)(F)F)c2ccc(F)cc2)nn1
2. CCc1cc2c(N3CCc4c(cc(Cn5ccnc5)cc4-c4cn(C)nc4C(F)(F)F)C3=O)cc(C)nc2c(OC)n1 + Nc1ccc(C#CCN(C(=O)Cc2ncc(C(F)(F)F)cc2C(F)(F)F)c2ccc(F)cc2)nn1
3. CC1COCCN1c1cc(-c2ccnn2C)c2ccnc(-c3ccn[nH]3)c2n1 (stereo unspecified) + Cc1cccc(N(C)C(=O)C2C(O)CCN2c2nc(C)cc(C(F)(F)F)c2C#N)c1

Solution:
1: 10.6%; 2: 42.1%; 3: 12.6%
